- measurement-target: Peroxisome proliferator-activated receptor delta (Homo sapiens, UniProt Q03181)
- Sequence (Q03181 whole entry): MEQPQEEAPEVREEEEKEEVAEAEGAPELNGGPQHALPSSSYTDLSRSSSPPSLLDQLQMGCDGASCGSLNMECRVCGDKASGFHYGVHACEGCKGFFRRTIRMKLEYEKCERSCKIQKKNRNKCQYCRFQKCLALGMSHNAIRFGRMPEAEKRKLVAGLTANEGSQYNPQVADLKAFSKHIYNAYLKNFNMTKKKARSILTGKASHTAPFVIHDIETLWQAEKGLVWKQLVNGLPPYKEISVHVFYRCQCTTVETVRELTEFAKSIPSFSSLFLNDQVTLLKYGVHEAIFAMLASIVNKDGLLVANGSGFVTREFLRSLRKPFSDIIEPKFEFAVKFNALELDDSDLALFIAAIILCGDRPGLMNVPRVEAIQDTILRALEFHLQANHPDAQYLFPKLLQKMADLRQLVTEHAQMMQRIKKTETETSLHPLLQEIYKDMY
Please assign not met whenever EC50 is at or above 100 nM, and met whenever it is below.

Cc1cc(OCc2nc(-c3ccc(-c4ccccc4)cc3)c(-c3ccc(OC(F)(F)F)cc3)s2)ccc1OCC(=O)O : not met
Cc1cc(OC/C=C(\C#Cc2ccc(C(F)(F)F)cc2)c2ccc(Br)cc2)ccc1OCC(=O)O : not met
Cc1cc(OCc2nc(-c3ccc(N4CCOCC4)cc3)c(-c3ccc(OC(F)(F)F)cc3)s2)ccc1OCC(=O)O : met
Cc1cc(OCc2nc(-c3ccc(C(F)(F)F)cc3)c(C)s2)ccc1OCC(=O)O : not met
COc1ccc(-c2nc(COc3ccc(OC(C)(C)C(=O)O)cc3)sc2-c2ccc(C(F)(F)F)cc2)cc1 : not met
CCCOc1ccc(-c2nc(COc3ccc(OCC(=O)O)c(C)c3)sc2-c2ccc(OC(F)(F)F)cc2)cc1 : met
COc1ccc(-c2nc(COc3ccc(CC(=O)O)cc3Cl)sc2-c2ccc(C(F)(F)F)cc2)cc1 : not met
COc1ccc(-c2nc(COc3cccc(OCC(=O)O)c3)sc2-c2ccc(C(F)(F)F)cc2)cc1 : not met
